System: Vero E6 infected with SARS-CoV-2
test: inhibition of SARS-CoV-2 cytopathic effect; higher = more antiviral protection, active = above 15
conditions.used: 833.33 nM; 48 h
Item-by-item account of inhibition of SARS-CoV-2 cytopathic effect
quantity.kind: inhibition of SARS-CoV-2 cytopathic effect (%)

compound: NC(=O)c1ccc(F)c2c1C[C@@H](N(C1CCC1)C1CCC1)CO2 [robalzotan]
unit.of.measurement: %
result.number: 0.98
--
compound: Nc1ncnc2c1ncn2[C@@H]1O[C@H](C[C@@H](N)CC[C@H](N)C(=O)O)[C@@H](O)[C@H]1O [sinefungin]
unit.of.measurement: %
result.number: -7.77
--
compound: CN(C)NC(=O)CCC(=O)O [daminozide]
unit.of.measurement: %
result.number: 0.11
--
compound: CC1=C(/C=C/C(=C/C=C/C(C)=C/C(=O)O)c2ccc(C)cc2)C(C)(C)CCC1
unit.of.measurement: %
result.number: 1.71
--
compound: O=c1ncccn1[C@@H]1O[C@H](CO)[C@@H](O)[C@H]1O [zebularine]
unit.of.measurement: %
result.number: 1.42
--
compound: C[C@@H]1CC[C@@]2(OC1)O[C@H]1C[C@H]3[C@@H]4CC=C5C[C@@H](O[C@@H]6O[C@H](CO)[C@@H](O[C@@H]7O[C@@H](C)[C@H](O)[C@@H](O)[C@H]7O)[C@H](O)[C@H]6O[C@@H]6O[C@@H](C)[C@H](O)[C@@H](O)[C@H]6O)CC[C@]5(C)[C@H]4CC[C@]3(C)[C@H]1[C@@H]2C [dioscin]
unit.of.measurement: %
result.number: 0.22
--
compound: CN(C)CCC(c1ccc(Br)cc1)c1ccccn1 (stereo not drawn) [brompheniramine]
unit.of.measurement: %
result.number: -0.09
--
compound: C[N@+]1(CC2CC2)CC[C@]23c4c5ccc(O)c4O[C@H]2C(=O)CC[C@@]3(O)[C@H]1C5 [methylnaltrexone]
unit.of.measurement: %
result.number: 1.11

###

System: Vero E6 infected with SARS-CoV-2
test: inhibition of SARS-CoV-2 cytopathic effect; higher = more antiviral protection, active = above 15
conditions.used: 833.33 nM; 48 h
quantity.kind: inhibition of SARS-CoV-2 cytopathic effect (%)

molecule: Nc1ncnc2c1ncn2[C@H]1CC[C@@H](CO)O1
result.number: 1.23

molecule: CNC(=O)Nc1ccc(-c2nc(N3CC4CCC(C3)O4)c3cnn(C4CCC5(CC4)OCCO5)c3n2)cc1
result.number: -0.87

molecule: OCCN1CCN(CC/C=C2/c3ccccc3Sc3ccc(C(F)(F)F)cc32)CC1
result.number: -0.29

molecule: C[C@@H](NC(=O)[C@@H](N)Cc1ccc(O)cc1)C(=O)NCC(=O)N(C)[C@@H](Cc1ccccc1)C(=O)N[C@H](CO)CC[S+](C)[O-] (stereo partly drawn)
result.number: -0.24

molecule: CCN(CCO)CCCOc1ccc2c(Nc3cc(CC(=O)Nc4cccc(F)c4)[nH]n3)ncnc2c1
result.number: -4.18

molecule: Cn1c(=O)n(-c2ccc(C(C)(C)C#N)cc2)c2c3cc(-c4cnc5ccccc5c4)ccc3ncc21
result.number: -5.08

molecule: CCC(N)C(O)c1ccc(O)c(O)c1 (stereo not drawn) [ethylnorepinephrine]
result.number: -1.28

molecule: COc1cc2ncc(-c3ccccc3)nc2cc1OC
result.number: -1.04

Taken from the supplement of paper PMC13380429.
